B1: library; numbered along this chain (parent)
chain: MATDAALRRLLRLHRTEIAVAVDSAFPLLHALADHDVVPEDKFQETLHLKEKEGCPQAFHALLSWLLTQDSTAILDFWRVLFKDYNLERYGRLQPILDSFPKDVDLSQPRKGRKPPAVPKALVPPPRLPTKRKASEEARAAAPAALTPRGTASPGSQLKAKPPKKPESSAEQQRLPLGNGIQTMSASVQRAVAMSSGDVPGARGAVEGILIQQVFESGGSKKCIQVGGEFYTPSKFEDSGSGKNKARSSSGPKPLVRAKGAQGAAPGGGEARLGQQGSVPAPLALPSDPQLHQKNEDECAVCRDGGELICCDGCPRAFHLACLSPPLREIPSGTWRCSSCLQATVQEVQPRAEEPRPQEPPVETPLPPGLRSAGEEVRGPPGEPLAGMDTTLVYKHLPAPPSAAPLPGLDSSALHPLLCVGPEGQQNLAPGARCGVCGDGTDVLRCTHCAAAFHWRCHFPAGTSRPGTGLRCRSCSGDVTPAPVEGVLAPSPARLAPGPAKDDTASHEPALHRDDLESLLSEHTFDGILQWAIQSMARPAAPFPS

Variants of: B1
Test: AIRE transcriptional activation functional score (insulin promoter-GFP; nonsense median 0, synonymous median 1) (normalised score); higher = higher AIRE activity (more reporter activation)
Conditions: with insulin promoter-GFP reporter in HEK293
So basically: AIRE transcriptional activation functional score at 1 or higher? That is 1. Lower than 1? That is -1.

>>> print(df.to_string())
    variant  answerlabel
 0     V20I            1
 1    G467C           -1
 2     D98H            1
 3    P143V           -1
 4    R473P           -1
 5    S412L            1
 6    V192S           -1
 7    Q426E            1
 8     L63G           -1
 9    Q349K            1
10    G201L            1
11    G382W            1
12    G263D            1
13     H60I           -1
14    A191T            1
15    A258F            1
16     L10R           -1
17    C337M           -1
18     G91I           -1
19     L29M           -1
20    A170Y            1
21    G431F            1
22    E329A            1
23    R445S           -1
24    S239V            1
25     L10P           -1
26    G306R           -1
27    L177P           -1
28    S135N           -1
29    G313F            1
30    P129E           -1
31    P129I           -1
32    A451D           -1
33    K161R            1
34     W78D           -1
35     S64I           -1
36    Q425C           -1
37    K243D           -1
38    P357Q            1
